- Test system: TNFα-induced NF-κB activation
- assayProcedure: suppression of TNFα-induced NF-κB activation in HEK-Blue CD40L sensor cells
- Format: cell-based, human
- experimentalParameters: relative potency from TNFα IC50, DEX = 100
Give rRBATNFα for every item shown.
Number only, please.

Sample C[C@]12C=CC(=O)C=C1CC[C@@H]1[C@@H]2[C@@H](O)C[C@@]2(C)[C@H]1CC[C@]2(O)C(=O)CO — what was its rRBATNFα?
20.6

Sample CCOC(=O)O[C@]1(C(=O)OCCl)CC[C@H]2[C@@H]3CCC4=CC(=O)C=C[C@]4(C)[C@H]3[C@@H](O)C[C@@]21C [LE, loteprednol etabonate] — what was its rRBATNFα?
372.6

Sample CCC(=O)O[C@]1(C(=O)CCl)[C@@H](C)C[C@H]2[C@@H]3CCC4=CC(=O)C=C[C@]4(C)[C@@]3(F)[C@@H](O)C[C@@]21C [CP, clobetasol propionate] — what was its rRBATNFα?
13074.5

Sample C[C@@H]1C[C@H]2[C@@H]3CCC4=CC(=O)C=C[C@]4(C)[C@@]3(F)[C@@H](O)C[C@]2(C)[C@@]1(O)C(=O)CO — what was its rRBATNFα?
100.0

Sample CC1(C)O[C@@H]2C[C@H]3[C@@H]4CCC5=CC(=O)C=C[C@]5(C)[C@@]4(F)[C@@H](O)C[C@]3(C)[C@]2(C(=O)CO)O1 [TA, triamcinolone acetonide] — what was its rRBATNFα?
387.4

Sample CCC(=O)OCC(=O)[C@@]1(OC(=O)CC)[C@@H](C)C[C@H]2[C@@H]3CCC4=CC(=O)C=C[C@]4(C)[C@@]3(Cl)[C@@H](O)C[C@@]21C [BDP, beclomethasone dipropionate] — what was its rRBATNFα?
2952.7

Sample C[C@]12CCC(=O)C=C1CC[C@@H]1[C@@H]2[C@@H](O)C[C@@]2(C)[C@H]1CC[C@]2(O)C(=O)CO [HC, hydrocortisone] — what was its rRBATNFα?
18.9

###

- System: CD40L-induced NF-κB activation
- assayProcedure: suppression of CD40L-induced NF-κB activation in HEK-Blue CD40L sensor cells
- Assay type: cell-based, human
- experimentalParameters: Homo sapiens, HEK-Blue, 30 h, read-out: CD40L, IC50
pIC50: −log10 of the molar value.
Please mark Yes if the recorded pIC50 is equal to or greater than 10, and No if it falls below.

Is it the case that C[C@@H]1C[C@H]2[C@@H]3CCC4=CC(=O)C=C[C@]4(C)[C@@]3(F)[C@@H](O)C[C@]2(C)[C@@]1(O)C(=O)CO [DEX, dexamethasone] has pIC50 reaching or exceeding 10?
No

Is it the case that CC1(C)O[C@@H]2C[C@H]3[C@@H]4CCC5=CC(=O)C=C[C@]5(C)[C@@]4(F)[C@@H](O)C[C@]3(C)[C@]2(C(=O)CO)O1 [TA, triamcinolone acetonide] has pIC50 reaching or exceeding 10?
No

Is it the case that CCC(=O)OCC(=O)[C@@]1(OC(=O)CC)[C@@H](C)C[C@H]2[C@@H]3CCC4=CC(=O)C=C[C@]4(C)[C@@]3(Cl)[C@@H](O)C[C@@]21C [BDP, beclomethasone dipropionate] has pIC50 reaching or exceeding 10?
No

Is it the case that C[C@]12CCC(=O)C=C1CC[C@@H]1[C@@H]2[C@@H](O)C[C@@]2(C)[C@H]1CC[C@]2(O)C(=O)CO [HC, hydrocortisone] has pIC50 reaching or exceeding 10?
No

Is it the case that C[C@]12C=CC(=O)C=C1CC[C@@H]1[C@@H]2[C@@H](O)C[C@@]2(C)[C@H]1CC[C@]2(O)C(=O)CO [PRED, prednisolone] has pIC50 reaching or exceeding 10?
No

Is it the case that CCC(=O)O[C@]1(C(=O)CCl)[C@@H](C)C[C@H]2[C@@H]3CCC4=CC(=O)C=C[C@]4(C)[C@@]3(F)[C@@H](O)C[C@@]21C [CP, clobetasol propionate] has pIC50 reaching or exceeding 10?
Yes
